tgt: Retinoic acid receptor alpha (Homo sapiens) (UniProt P10276)
Sequence (P10276 whole entry, looked up): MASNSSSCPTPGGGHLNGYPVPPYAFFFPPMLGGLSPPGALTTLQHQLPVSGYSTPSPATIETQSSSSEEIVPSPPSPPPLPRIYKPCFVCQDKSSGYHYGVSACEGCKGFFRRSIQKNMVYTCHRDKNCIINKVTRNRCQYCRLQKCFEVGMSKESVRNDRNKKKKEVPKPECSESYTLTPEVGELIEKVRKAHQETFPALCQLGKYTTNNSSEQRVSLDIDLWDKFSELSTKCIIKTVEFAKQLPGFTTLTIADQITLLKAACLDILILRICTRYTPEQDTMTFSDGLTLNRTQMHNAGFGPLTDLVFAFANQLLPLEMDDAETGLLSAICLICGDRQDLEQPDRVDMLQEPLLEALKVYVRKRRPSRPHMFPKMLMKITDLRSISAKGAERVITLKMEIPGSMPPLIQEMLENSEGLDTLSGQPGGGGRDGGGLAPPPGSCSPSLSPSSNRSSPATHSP
assay_summary: ATG_DR5_RAR_CIS: Attagene CIS-FACTORIAL HepG2 Assay for human Retinoic Acid Receptor Alpha (RARE), DR5 submotif (AID 2282934)
cond: HepG2 Attagene cis-factorial RARE DR5 reporter, mRNA; actives raise or lower the signal
Active and inactive are the calls of the source. How the source made its calls: active means hit-call score of the fitted dose curve at least 0.9, where 1 is the maximum; inactive means score below 0.9.
Possible outcomes: active, inactive

>  <molecular_string>
C[N+](C)(C)CCCNS(=O)(=O)C(F)(F)C(F)(F)C(F)(F)C(F)(F)C(F)(F)C(F)(F)C(F)(F)C(F)(F)F

>  <tgt>
Retinoic acid receptor alpha (Homo sapiens) (UniProt P10276)

>  <class_label>
inactive

$$$$
>  <molecular_string>
O=C(OCCc1ccccc1)c1ccccc1

>  <tgt>
Retinoic acid receptor alpha (Homo sapiens) (UniProt P10276)

>  <class_label>
inactive

$$$$
>  <molecular_string>
CCCCCCCOC(=O)c1ccc(O)cc1

>  <tgt>
Retinoic acid receptor alpha (Homo sapiens) (UniProt P10276)

>  <class_label>
active

$$$$
>  <molecular_string>
Oc1ccc(/C=C/c2cc(O)cc(O)c2)cc1

>  <tgt>
Retinoic acid receptor alpha (Homo sapiens) (UniProt P10276)

>  <class_label>
inactive

$$$$
>  <molecular_string>
CC(CC(C)C)=NO

>  <tgt>
Retinoic acid receptor alpha (Homo sapiens) (UniProt P10276)

>  <class_label>
inactive

$$$$
>  <molecular_string>
CC(=O)OC/C=C(/C)CCC=C(C)C

>  <tgt>
Retinoic acid receptor alpha (Homo sapiens) (UniProt P10276)

>  <class_label>
inactive

$$$$
>  <molecular_string>
CC1(C)[C@@H]2CC[C@@]1(C)C(=O)C2

>  <tgt>
Retinoic acid receptor alpha (Homo sapiens) (UniProt P10276)

>  <class_label>
inactive

$$$$
>  <molecular_string>
CCCc1ccc(O)c(OC)c1

>  <tgt>
Retinoic acid receptor alpha (Homo sapiens) (UniProt P10276)

>  <class_label>
inactive

$$$$
>  <molecular_string>
CCCC=C(C=O)CC

>  <tgt>
Retinoic acid receptor alpha (Homo sapiens) (UniProt P10276)

>  <class_label>
inactive

$$$$
>  <molecular_string>
O=C1c2ccccc2C(=O)c2cc(S(=O)(=O)O)ccc21

>  <tgt>
Retinoic acid receptor alpha (Homo sapiens) (UniProt P10276)

>  <class_label>
inactive

$$$$
>  <molecular_string>
CC(C)=CCCC(C)=CC#N

>  <tgt>
Retinoic acid receptor alpha (Homo sapiens) (UniProt P10276)

>  <class_label>
inactive

$$$$
>  <molecular_string>
O=C(Cl)c1ccc(C(=O)Cl)cc1

>  <tgt>
Retinoic acid receptor alpha (Homo sapiens) (UniProt P10276)

>  <class_label>
inactive

$$$$
>  <molecular_string>
Fc1ccc(Br)cc1

>  <tgt>
Retinoic acid receptor alpha (Homo sapiens) (UniProt P10276)

>  <class_label>
inactive

$$$$
>  <molecular_string>
Oc1c(Cl)cc(Cl)c(Cl)c1Cl

>  <tgt>
Retinoic acid receptor alpha (Homo sapiens) (UniProt P10276)

>  <class_label>
inactive

$$$$

* * *

tgt: Nuclear respiratory factor 1 (Homo sapiens) (UniProt Q16656)
Sequence (Q16656 whole entry, looked up): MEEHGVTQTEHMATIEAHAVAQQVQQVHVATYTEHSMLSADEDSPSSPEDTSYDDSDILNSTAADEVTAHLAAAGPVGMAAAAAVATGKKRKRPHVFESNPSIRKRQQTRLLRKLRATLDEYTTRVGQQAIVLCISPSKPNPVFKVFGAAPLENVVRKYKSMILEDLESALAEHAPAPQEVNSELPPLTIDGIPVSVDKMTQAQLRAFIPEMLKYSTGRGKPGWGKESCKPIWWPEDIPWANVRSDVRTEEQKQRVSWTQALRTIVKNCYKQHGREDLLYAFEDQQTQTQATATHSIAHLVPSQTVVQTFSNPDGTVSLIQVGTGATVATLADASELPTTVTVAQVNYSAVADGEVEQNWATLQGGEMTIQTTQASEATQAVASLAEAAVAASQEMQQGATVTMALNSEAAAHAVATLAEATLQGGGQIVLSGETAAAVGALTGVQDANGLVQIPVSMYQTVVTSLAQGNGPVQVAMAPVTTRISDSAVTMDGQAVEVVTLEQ
assay_summary: ATG_NRF1_CIS: Attagene CIS-FACTORIAL HepG2 Assay for human Nuclear Respiratory Factor 1 (NRF1) Orphan Gene (AID 2282987)
cond: HepG2 NRF1 cis-element reporter, Attagene multiplex; actives raise or lower the signal
Experimental: ATG_CIS is a cell-based, multiplexed-readout assay that uses HepG2, a human liver cell line, with measurements taken at 24 hours after chemical dosing in a 24-well plate.ATG_NRF1_CIS is one of 52 assay component(s) measured or calculated from the ATG_CIS assay. […] This assay endpoint, ATG_NRF1_CIS, was analyzed with bidirectional fitting relative to DMSO as the negative control and baseline of activity. […]
Calls of active or inactive are those of the source. Rule for the calls: active = hit-call score of the fitted dose curve at least 0.9, where 1 is the maximum; inactive = score below 0.9.

>  <molecule>
CN1CCN(C)CC1

>  <AC50>
inactive

$$$$
>  <molecule>
CC(=O)OC1CCCCC1

>  <AC50>
inactive

$$$$
>  <molecule>
C=C[C@@]1(C)CC(=O)[C@]2(O)[C@@]3(C)[C@@H](O)CCC(C)(C)[C@@H]3[C@H](O)[C@H](OC(C)=O)[C@@]2(C)O1

>  <AC50>
inactive

$$$$
>  <molecule>
CC1=CC=C(C(C)C)CC1

>  <AC50>
inactive

$$$$
>  <molecule>
CCCCC(=O)O

>  <AC50>
inactive

$$$$
>  <molecule>
Cn1ccnc1

>  <AC50>
inactive

$$$$
>  <molecule>
CC(=O)CCC1=C(C)CCCC1(C)C

>  <AC50>
inactive

$$$$
>  <molecule>
Cc1noc(NS(=O)(=O)c2ccc(N)cc2)c1C

>  <AC50>
inactive

$$$$
>  <molecule>
CC=C(C)C(C)=O

>  <AC50>
inactive

$$$$
>  <molecule>
CCCCC(CC)COC(=O)/C=C/c1ccc(OC)cc1 (stereo unspecified)

>  <AC50>
inactive

$$$$
>  <molecule>
c1ccc(Nc2cccc3ccccc23)cc1

>  <AC50>
52.1 µM (active)

$$$$
>  <molecule>
O=C(OCCc1ccccc1)c1ccccc1

>  <AC50>
inactive

$$$$
>  <molecule>
COCC(=O)O

>  <AC50>
inactive

$$$$
>  <molecule>
C=C[Si](OCCOC)(OCCOC)OCCOC

>  <AC50>
inactive

$$$$
>  <molecule>
CC(C)(C)C1CCC(=O)CC1

>  <AC50>
inactive

$$$$
>  <molecule>
CC(CCC(=O)O)(c1ccc(O)cc1)c1ccc(O)cc1

>  <AC50>
inactive

$$$$
>  <molecule>
CCCCCCCCC(CO)CCCCCC (stereo unspecified)

>  <AC50>
117 µM (active)

$$$$
>  <molecule>
C=Cc1cccc(C)c1

>  <AC50>
inactive

$$$$
>  <molecule>
CCCCOCCOC(=O)COc1ccc(Cl)cc1Cl

>  <AC50>
inactive

$$$$
>  <molecule>
COC(Cc1ccccc1)OC

>  <AC50>
inactive

$$$$
>  <molecule>
CC(c1cc(C(C)(C)C)cc(C(C)(C)C)c1O)c1cc(C(C)(C)C)cc(C(C)(C)C)c1O

>  <AC50>
inactive

$$$$
>  <molecule>
O=C(OCc1ccccc1)c1ccc(O)cc1

>  <AC50>
inactive

$$$$
>  <molecule>
CC1=CCC2CC1C2(C)C (stereo unspecified)

>  <AC50>
inactive

$$$$
>  <molecule>
CCCSSCCC

>  <AC50>
inactive

$$$$
>  <molecule>
CCOC(=O)OC(=O)OCC

>  <AC50>
inactive

$$$$
>  <molecule>
C=C(C)[C@@H]1CC=C(C)CC1

>  <AC50>
inactive

$$$$
>  <molecule>
CC(=O)/C=C/C1C(C)=CCCC1(C)C (stereo unspecified)

>  <AC50>
inactive

$$$$
>  <molecule>
CC1=NN(c2ccc(S(=O)(=O)O)cc2)C(=O)C1N=Nc1ccccc1 (stereo unspecified)

>  <AC50>
inactive

$$$$
>  <molecule>
CCCCCCCCCC(C)=O

>  <AC50>
inactive

$$$$
>  <molecule>
O=C(O)C1CCC(C(=O)O)CC1 (stereo unspecified)

>  <AC50>
inactive

$$$$
>  <molecule>
C=CCCCCCCCCOC(C)=O

>  <AC50>
inactive

$$$$

* * *

Read-out: Intercellular Adhesion Molecule 1 (ICAM1), ICAM1 (gene 3383)
assay_summary: BSK_3C_ICAM1: BioMAP Diversity Plus: 3C Assay for Intercellular Adhesion Molecule 1 (ICAM1) Biomarker Activity (AID 2283003)
cond: primary human endothelial cells (HUVEC); actives raise or lower the signal
Activity calls are given as the source filed them. How the source made its calls: active means hit-call score of the fitted dose curve at least 0.9, where 1 is the maximum; inactive means score below 0.9.
Possible outcomes: active, inactive

>  <compound>
CCOC(=O)C1=NOC(c2ccccc2)(c2ccccc2)C1

>  <class_label>
inactive

$$$$
>  <compound>
CCOC(=O)C1=NN(c2ccc(Cl)cc2Cl)C(C)(C(=O)OCC)C1 (stereo not drawn)

>  <class_label>
inactive

$$$$
>  <compound>
C=CC(=O)NCOCCCC

>  <class_label>
inactive

$$$$
>  <compound>
CC(CCC(=O)O)(c1ccc(O)cc1)c1ccc(O)cc1

>  <class_label>
inactive

$$$$
>  <compound>
C[N+](C)(C)CCCNS(=O)(=O)C(F)(F)C(F)(F)C(F)(F)C(F)(F)C(F)(F)C(F)(F)C(F)(F)C(F)(F)F

>  <class_label>
inactive

$$$$
>  <compound>
CC(C)[N+](C)(CCOC(=O)C1c2ccccc2Oc2ccccc21)C(C)C

>  <class_label>
inactive

$$$$
>  <compound>
CCc1cccc(C)c1N(C(=O)CS(=O)(=O)O)C(C)COC (stereo not drawn)

>  <class_label>
inactive

$$$$
>  <compound>
CC/C=C\C/C=C\C/C=C\CCCCCCCC(=O)OC

>  <class_label>
active

$$$$
>  <compound>
O=C1CCCCCCCCCCCN1

>  <class_label>
inactive

$$$$
>  <compound>
CCCCCC1=CCCC1=O

>  <class_label>
inactive

$$$$
>  <compound>
CC(C)CCCCCOC(=O)CS

>  <class_label>
inactive

$$$$
>  <compound>
CCCCCCCO

>  <class_label>
inactive

$$$$
>  <compound>
CCCCCCC=O

>  <class_label>
inactive

$$$$

Reference for the values: PubChem BioAssay (EPA / NIEHS)
